Data provenance is the Human Domainome abundance scans (Beltran et al. 2025).

B1: DNA topoisomerase 3-alpha, residues 812 to 851; numbered along this chain, Q13472 (parent)
chain: TCNCGQEAVLLTVRKEGPNRGRQFFKCNGGSCNFFLWADS

Variants of: B1
Assay: abundance fitness (aPCA) (normalised: wild type 0, dead -1); higher = more abundant; growth selection in yeast, the domain comes from the species named
Settings: Homo sapiens
Parameter threshold = -0.2. Response is yes (1) when abundance fitness meets or exceeds it, else no (0).

INSERT INTO assay_data (mutant_label, class) VALUES
  ('R22S', 'no (0)'),
  ('L36M', 'yes (1)'),
  ('R20G', 'yes (1)'),
  ('W37L', 'no (0)'),
  ('G21V', 'no (0)'),
  ('Q23W', 'no (0)'),
  ('G21S', 'no (0)'),
  ('T12H', 'no (0)'),
  ('T12Q', 'no (0)'),
  ('R22K', 'yes (1)'),
  ('L11A', 'yes (1)');
